Test system: EKVX NSCLC
Test: NCI tumour cell line growth inhibition, 48 h
Task for the reader: assign each of the following molecules its reported TGI.

Asked: TGI lookup needed for C=CS(=O)(=O)c1c2cc(OC)ccc2nc2ccc(OC)cc12 , thanks.
Given back: 21.1 µM

Asked: And the next one, CC1=C(C(=O)NNC(=O)c2ccccc2)CC(C(=O)NNC(=O)c2ccccc2)=C(C)N1 ?
Given back: > 100 µM

Asked: And the next one, COP(=O)(OC)C(C)(C)NC(=O)NC(F)(F)F ?
Given back: > 100 µM

* * *

Test system: UACC-257 melanoma
Experiment: NCI tumour cell line growth inhibition, 48 h
Quantity: TGI

Asked: Form entry - test system: UACC-257 melanoma; read-out: TGI; molecule: CCC1=C(C)c2cc3[n-]c(cc4nc(c(C=O)c5[n-]c(cc1n2)c(C)c5CC)C(C)=C4CC)c(C)c3CC.[Ni+2]
Given back: > 100 µM

Asked: And the next one, COc1ccc(N=Nc2c(O)ccc3ccccc23)cc1 ?
Given back: > 100 µM

Asked: And the next one, Cc1ccccc1C1=C/C(=C(\SS/C(C(=O)c2ccc(OCC(=O)O)c(Cl)c2Cl)=C2\C=C(c3ccccc3C)SS2)C(=O)c2ccc(OCC(=O)O)c(Cl)c2Cl)SS1 ?
Given back: 71.1 µM

Asked: And the next one, Cc1ccc(C(N)=Nc2ccccc2)cc1 ?
Given back: > 100 µM

Asked: And the next one, Cc1ccc(NC(=O)C(=O)C(C2C(C)CC(=O)C2CC(=O)O)[N+](=O)[O-])cc1 (stereo unspecified) ?
Given back: > 100 µM

Asked: And the next one, C[C@]12Cc3cn[nH]c3C(=O)C1CC[C@@H]1C2CC[C@@]2(C)C1CC[C@]2(C)O (stereo partly specified) ?
Given back: > 100 µM

Asked: And the next one, Cc1cc(C)c(C2CC(O)C(CO)O2)cc1C (stereo unspecified) ?
Given back: > 100 µM

Asked: And the next one, CCOC(=O)C1C(=O)CC(O)(c2ccccc2)C(C(=O)OCC)C1c1ccc(N(C)C)cc1 (stereo unspecified) ?
Given back: > 100 µM

Asked: And the next one, CN(C)C=Nc1ccc2nonc2c1 ?
Given back: > 100 µM

Asked: And the next one, O=C1/C(=C/c2ccc(O)c(O)c2)COc2ccc(-c3ccccc3)cc21 ?
Given back: 16.9 µM

Asked: And the next one, COc1ccc2c(c1)OCC1c3cc(O)ccc3OC21 (stereo unspecified) ?
Given back: > 100 µM
